Molecular target: Cav3.2 T-type calcium channel (Homo sapiens, UniProt O95180)
Sequence (O95180 whole entry): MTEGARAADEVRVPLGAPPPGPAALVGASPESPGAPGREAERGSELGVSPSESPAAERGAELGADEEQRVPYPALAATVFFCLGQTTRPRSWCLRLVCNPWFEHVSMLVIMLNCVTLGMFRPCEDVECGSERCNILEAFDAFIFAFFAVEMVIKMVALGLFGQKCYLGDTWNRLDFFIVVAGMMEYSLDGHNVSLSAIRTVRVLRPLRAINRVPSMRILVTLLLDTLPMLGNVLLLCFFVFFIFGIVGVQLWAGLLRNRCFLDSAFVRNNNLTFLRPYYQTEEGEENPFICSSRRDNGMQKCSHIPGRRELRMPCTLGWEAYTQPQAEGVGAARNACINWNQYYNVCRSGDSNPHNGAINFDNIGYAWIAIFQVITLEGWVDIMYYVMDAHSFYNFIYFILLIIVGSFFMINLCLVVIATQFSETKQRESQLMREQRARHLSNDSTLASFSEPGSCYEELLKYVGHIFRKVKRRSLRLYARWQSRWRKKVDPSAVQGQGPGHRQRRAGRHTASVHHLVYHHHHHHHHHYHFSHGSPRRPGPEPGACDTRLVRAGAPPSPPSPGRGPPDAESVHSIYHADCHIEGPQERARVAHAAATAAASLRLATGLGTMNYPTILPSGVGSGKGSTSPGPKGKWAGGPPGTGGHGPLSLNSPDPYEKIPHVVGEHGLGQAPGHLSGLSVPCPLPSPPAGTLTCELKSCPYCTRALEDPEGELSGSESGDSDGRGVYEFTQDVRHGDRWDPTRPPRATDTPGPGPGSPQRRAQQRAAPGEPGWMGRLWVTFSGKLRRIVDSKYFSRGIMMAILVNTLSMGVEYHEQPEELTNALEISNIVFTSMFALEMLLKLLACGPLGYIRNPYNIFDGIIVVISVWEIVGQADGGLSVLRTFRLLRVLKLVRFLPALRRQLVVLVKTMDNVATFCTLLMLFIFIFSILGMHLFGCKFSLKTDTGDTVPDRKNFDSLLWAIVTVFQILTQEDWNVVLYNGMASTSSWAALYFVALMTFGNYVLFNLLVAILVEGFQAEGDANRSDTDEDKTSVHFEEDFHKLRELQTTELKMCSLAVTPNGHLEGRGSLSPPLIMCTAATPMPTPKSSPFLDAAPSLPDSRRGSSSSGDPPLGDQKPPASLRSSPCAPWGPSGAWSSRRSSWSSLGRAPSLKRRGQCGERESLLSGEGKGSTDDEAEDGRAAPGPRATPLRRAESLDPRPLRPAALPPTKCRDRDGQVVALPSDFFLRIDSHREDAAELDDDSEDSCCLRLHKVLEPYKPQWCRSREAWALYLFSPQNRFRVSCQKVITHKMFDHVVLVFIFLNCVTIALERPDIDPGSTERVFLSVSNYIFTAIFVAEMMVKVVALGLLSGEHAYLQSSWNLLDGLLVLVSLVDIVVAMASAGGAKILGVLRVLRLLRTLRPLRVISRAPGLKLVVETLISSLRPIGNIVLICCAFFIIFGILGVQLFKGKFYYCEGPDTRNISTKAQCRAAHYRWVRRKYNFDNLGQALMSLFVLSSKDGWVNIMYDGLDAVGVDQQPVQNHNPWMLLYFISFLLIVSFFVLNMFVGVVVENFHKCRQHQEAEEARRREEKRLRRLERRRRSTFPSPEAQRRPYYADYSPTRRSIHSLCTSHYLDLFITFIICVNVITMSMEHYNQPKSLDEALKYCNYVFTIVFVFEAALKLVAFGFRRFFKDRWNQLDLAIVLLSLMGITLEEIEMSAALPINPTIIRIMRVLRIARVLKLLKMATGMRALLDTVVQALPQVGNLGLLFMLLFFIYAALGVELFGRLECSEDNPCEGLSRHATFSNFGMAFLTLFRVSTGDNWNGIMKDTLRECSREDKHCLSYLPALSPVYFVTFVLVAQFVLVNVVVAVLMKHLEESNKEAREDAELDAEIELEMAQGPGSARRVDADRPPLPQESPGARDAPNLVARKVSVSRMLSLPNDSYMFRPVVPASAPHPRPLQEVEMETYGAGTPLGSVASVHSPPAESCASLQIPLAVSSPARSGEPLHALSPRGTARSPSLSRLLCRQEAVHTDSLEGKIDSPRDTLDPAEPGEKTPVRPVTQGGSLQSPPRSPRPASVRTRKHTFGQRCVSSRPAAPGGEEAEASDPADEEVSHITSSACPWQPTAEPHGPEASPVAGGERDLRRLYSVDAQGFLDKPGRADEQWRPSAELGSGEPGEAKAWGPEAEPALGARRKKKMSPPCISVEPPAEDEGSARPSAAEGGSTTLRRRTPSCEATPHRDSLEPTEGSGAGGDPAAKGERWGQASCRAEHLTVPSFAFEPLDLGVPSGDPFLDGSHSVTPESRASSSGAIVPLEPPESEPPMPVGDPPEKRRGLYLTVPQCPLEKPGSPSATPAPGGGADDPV
Test: whole-cell patch clamp, tsA-201 cells transiently expressing Cav3.[…]; partial block (plateau about […])
pIC50: −log10 of the molar value.
Reported pIC50 by item:
reported.property: pIC50

[[record]]
molecule = "C=C1C2CCC(C2)C1(C)C (centres unmarked)"
system_tested = "Cav3.2 T-type calcium channel (Homo sapiens, UniProt O95180)"
reported_property = "pIC50"
measured_number = 5.11

[[record]]
molecule = "CC(C)=CCC[C@](C)(O)[C@@H]1CC=C(C)CC1"
system_tested = "Cav3.2 T-type calcium channel (Homo sapiens, UniProt O95180)"
reported_property = "pIC50"
measured_number = 5.35


Origin of measurements: paper PMC8591808
